Test system: Plasmodium berghei
Measurement notes: Luciferase/luciferin-expressing antifolate-resistant parasites were used to infect a culture of HepG2 cells that were pre-incubated with compounds. Infected hepatocytes emit light due to the luciferase reaction. Assay results are presented as the percent inhibition of light emission compared to control. […]
Format: functional
Reported conditions: sporozoite, HEPG2TOX_HILL_SLOPE 0.521, HEPG2TOX_R_SQUARED 0.423, PBLUC_HILL_SLOPE 3.64, PBLUC_R_SQUARED 0.888, read-out: LUCIFERASE INFECTION ASSAY - IC50

Smiles record: Cn1ncc2c(NCc3ccc(-c4ccc(Cl)cc4)o3)ncnc21
IC50: 306 nM
